system: Pseudomonas aeruginosa; test: Antibacterial activity was determined against gram negative organism, Pseudomonas aeruginosa (UI-18); assay type: functional
Each entry below carries its reported MIC.
Give just the numeric value; µg/mL need not be written.

* CCc1c(F)c(N2CCC(N)C2)cc2c1c(=O)c(C(=O)O)cn2C1CC1 (stereo not given) | 12.5

[Q] Answer with the recorded MIC of CCNCC1CCN(c2cc3c(c(C)c2F)c(=O)c(C(=O)O)cn3CC)C1 (stereo not given) only.
[A] 25

[Q] Answer with the recorded MIC of NC1CCN(c2c(F)cc3c(=O)c(C(=O)O)cn(C4CC4)c3c2Cl)C1 (stereo not given) [CLINAFLOXACIN] only.
[A] 0.05

###

tested on: Mus musculus; assay: In vivo subcutaneous protective dose was determined in female charles river CD-1 mice infected with Escherichia coli (vogel); assay type: functional; settings: sc, read-out: PD50
Field 'label' (enum: criterion met / criterion not met). Set to criterion met when ED50 is strictly under 0.4 mg/kg; else criterion not met.

• O=C(O)c1cn(C2CC2)c2c(F)c(N3CCNCC3)c(F)cc2c1=O = criterion met
• Cc1c(F)c(N2CCNC(C)C2)cc2c1c(=O)c(C(=O)O)cn2C1CC1 (stereo not given) = criterion not met
• Cc1c(F)c(N2CCNCC2)c(F)c2c1c(=O)c(C(=O)O)cn2C1CC1 = criterion met
• CCNCC1CCN(c2c(F)cc3c(=O)c(C(=O)O)cn(C4CC4)c3c2F)C1 (stereo not given) = criterion not met
• NC1CCN(c2cc3c(cc2F)c(=O)c(C(=O)O)cn3C2CC2)C1 (stereo not given) = criterion not met

[Q] Item O=C(O)c1cn(C2CC2)c2cc(N3CCNCC3)c(F)cc2c1=O : ED50 beneath 0.4 mg/kg, strictly?
[A] criterion met

[Q] Item Cc1c(F)c(N2CCC(N)C2)cc2c1c(=O)c(C(=O)O)cn2C1CC1 (stereo not given) : ED50 beneath 0.4 mg/kg, strictly?
[A] criterion not met

###

Each entry below carries its reported ED50.
system: Mus musculus; assay: In vivo subcutaneous protective dose was determined in female charles river CD-1 mice infected with Escherichia coli (vogel); format: functional; conditions: sc, read-out: PD50
Reply with the number and its unit after it.

Recorded results for 2 compounds are shown here.
* Cc1c(F)c(N2CCC(N)C2)c(F)c2c1c(=O)c(C(=O)O)cn2C1CC1 (stereo not drawn) | 0.5 mg/kg
* CC1CN(c2cc3c(cc2F)c(=O)c(C(=O)O)cn3C2CC2)CCN1 (stereo not drawn) | 0.4 mg/kg

# context switch: different compound, same ED50
[Q] Answer with the recorded ED50 of CCNCC1CCN(c2c(F)c(C)c3c(=O)c(C(=O)O)cn(C4CC4)c3c2F)C1 (stereo not drawn) only.
[A] 3 mg/kg

###

assay: MIC ratio measured as the mean MICs of gram-negative bacteria; format: functional
Each entry below carries its reported Ratio.
Keep it simple and answer with nothing but the number.

* Cc1c(F)c(N2CCC(N)C2)c(Cl)c2c1c(=O)c(C(=O)O)cn2C1CC1 (centres undefined) | 0.05
* Cc1c(F)c(N2CCNCC2)cc2c1c(=O)c(C(=O)O)cn2C1CC1 | 0.044
* Cc1c(F)c(N2CCNC(C)C2)cc2c1c(=O)c(C(=O)O)cn2C1CC1 (centres undefined) | 0.6

# context switch: different molecule, same Ratio
[Q] Answer with the recorded Ratio of CCn1cc(C(=O)O)c(=O)c2c(C)c(F)c(N3CCNCC3)cc21 only.
[A] 0.35

###

molecular target: DNA gyrase (Escherichia coli) (UniProt P0AES6+P0AES4)
Each entry below carries its reported DNA cleavage.
Reply with the number and its unit after it.

Recorded results for 2 molecules are shown here.
• CCn1cc(C(=O)O)c(=O)c2c(C)c(F)c(N3CC(C)NC(C)C3)cc21 (stereo unspecified) = 8.8 µg/mL
• Cc1c(F)c(N2CCC(N)C2)c(F)c2c1c(=O)c(C(=O)O)cn2C1CC1 (stereo unspecified) = 3 µg/mL

[Q] Answer with the recorded DNA cleavage of CCNCC1CCN(c2c(F)cc3c(=O)c(C(=O)O)cn(C4CC4)c3c2F)C1 (stereo unspecified) only.
[A] 0.25 µg/mL

[Q] Answer with the recorded DNA cleavage of CCn1cc(C(=O)O)c(=O)c2cc(F)c(N3CCC(N)C3)c(F)c21 (stereo unspecified) only.
[A] 2.5 µg/mL

[Q] Answer with the recorded DNA cleavage of NC1CCN(c2cc3c(cc2F)c(=O)c(C(=O)O)cn3C2CC2)C1 (stereo unspecified) only.
[A] 0.1 µg/mL

[Q] Answer with the recorded DNA cleavage of CCNCC1CCN(c2cc3c(c(C)c2F)c(=O)c(C(=O)O)cn3-c2ccc(F)cc2F)C1 (stereo unspecified) only.
[A] 0.75 µg/mL

[Q] Answer with the recorded DNA cleavage of CCn1cc(C(=O)O)c(=O)c2cc(F)c(N3CCNCC3)cc21 only.
[A] 1 µg/mL

[Q] Answer with the recorded DNA cleavage of Cc1c(F)c(N2CCC(N)C2)cc2c1c(=O)c(C(=O)O)cn2C1CC1 (stereo unspecified) only.
[A] 0.38 µg/mL

[Q] Answer with the recorded DNA cleavage of Cc1c(F)c(N2CCC(N)C2)c(Cl)c2c1c(=O)c(C(=O)O)cn2C1CC1 (stereo unspecified) only.
[A] 0.3 µg/mL

[Q] Answer with the recorded DNA cleavage of O=C(O)c1cn(C2CC2)c2c(Cl)c(N3CCNCC3)c(F)cc2c1=O only.
[A] 0.5 µg/mL

[Q] Answer with the recorded DNA cleavage of CCn1cc(C(=O)O)c(=O)c2cc(F)c(N3CCNCC3)c(F)c21 only.
[A] 2.5 µg/mL

[Q] Answer with the recorded DNA cleavage of O=C(O)c1cn(C2CC2)c2c(F)c(N3CCNCC3)c(F)cc2c1=O only.
[A] 0.5 µg/mL

[Q] Answer with the recorded DNA cleavage of CCNCC1CCN(c2cc3c(c(C)c2F)c(=O)c(C(=O)O)cn3CC)C1 (stereo unspecified) only.
[A] 3 µg/mL

[Q] Answer with the recorded DNA cleavage of CCn1cc(C(=O)O)c(=O)c2c(C)c(F)c(N3CCC(N)C3)cc21 (stereo unspecified) only.
[A] 6.3 µg/mL

[Q] Answer with the recorded DNA cleavage of Cc1c(F)c(N2CCNC(C)C2)cc2c1c(=O)c(C(=O)O)cn2C1CC1 (stereo unspecified) only.
[A] 3.75 µg/mL

###

tested on: Mus musculus; test: In vivo subcutaneous protective dose was determined in female charles river CD-1 mice infected with Streptococcus pneumoniae; assay type: functional; details: sc, read-out: PD50
Field 'label' (enum: YES / NO). Set to YES when ED50 is strictly under 10 mg/kg; else NO.

Examples from the recorded data:
• O=C(O)c1cn(C2CC2)c2c(F)c(N3CCNCC3)c(F)cc2c1=O = NO
• CCNCC1CCN(c2c(F)cc3c(=O)c(C(=O)O)cn(C4CC4)c3c2F)C1 (stereo unspecified) = YES
• Cc1c(F)c(N2CCNCC2)c(F)c2c1c(=O)c(C(=O)O)cn2C1CC1 = NO
• O=C(O)c1cn(C2CC2)c2cc(N3CCNCC3)c(F)cc2c1=O = NO
• Cc1c(F)c(N2CCNCC2)cc2c1c(=O)c(C(=O)O)cn2C1CC1 = NO

[Q] Item CC1CN(c2cc3c(cc2F)c(=O)c(C(=O)O)cn3C2CC2)CCN1 (stereo unspecified) : ED50 beneath 10 mg/kg, strictly?
[A] NO

[Q] Item Cc1c(F)c(N2CCNC(C)C2)c(F)c2c1c(=O)c(C(=O)O)cn2C1CC1 (stereo unspecified) : ED50 beneath 10 mg/kg, strictly?
[A] NO

[Q] Item NC1CCN(c2c(F)cc3c(=O)c(C(=O)O)cn(C4CC4)c3c2F)C1 (stereo unspecified) : ED50 beneath 10 mg/kg, strictly?
[A] YES

[Q] Item Cc1c(F)c(N2CCNC(C)C2)cc2c1c(=O)c(C(=O)O)cn2C1CC1 (stereo unspecified) : ED50 beneath 10 mg/kg, strictly?
[A] YES

[Q] Item CCNCC1CCN(c2c(F)c(C)c3c(=O)c(C(=O)O)cn(C4CC4)c3c2F)C1 (stereo unspecified) : ED50 beneath 10 mg/kg, strictly?
[A] YES

[Q] Item Cc1c(F)c(N2CCC(N)C2)c(F)c2c1c(=O)c(C(=O)O)cn2C1CC1 (stereo unspecified) : ED50 beneath 10 mg/kg, strictly?
[A] YES

###

Let's go through some DNA cleavage measurements on DNA gyrase (Escherichia coli) (UniProt P0AES6+P0AES4) together.
Give just the numeric value; µg/mL need not be written.

Recorded results for 4 compounds are shown here.
- NC1CCN(c2c(F)cc3c(=O)c(C(=O)O)cn(C4CC4)c3c2Cl)C1 (stereo not given) [CLINAFLOXACIN]: 0.5
- CCn1cc(C(=O)O)c(=O)c2c(C)c(F)c(N3CCNCC3)c(F)c21: 7.5
- CCNCC1CCN(c2c(F)c(C)c3c(=O)c(C(=O)O)cn(C4CC4)c3c2F)C1 (stereo not given): 3
- CC1(CN)CCN(c2cc3c(cc2F)c(=O)c(C(=O)O)cn3C2CC2)C1 (stereo not given): 3

[Q] # return DNA cleavage for Cc1c(F)c(N2CCC(C)(CN)C2)c(F)c2c1c(=O)c(C(=O)O)cn2C1CC1 (stereo not given) , test system: DNA gyrase (Escherichia coli) (UniProt P0AES6+P0AES4)
[A] 3.75

[Q] # return DNA cleavage for Cc1c(F)c(N2CCNCC2)c(Cl)c2c1c(=O)c(C(=O)O)cn2C1CC1 , test system: DNA gyrase (Escherichia coli) (UniProt P0AES6+P0AES4)
[A] 1.5

[Q] # return DNA cleavage for CCn1cc(C(=O)O)c(=O)c2cc(F)c(N3CCC(N)C3)cc21 (stereo not given) , test system: DNA gyrase (Escherichia coli) (UniProt P0AES6+P0AES4)
[A] 2.5

[Q] # return DNA cleavage for CC1CN(c2c(F)cc3c(=O)c(C(=O)O)cn(C4CC4)c3c2F)CCN1 (stereo not given) , test system: DNA gyrase (Escherichia coli) (UniProt P0AES6+P0AES4)
[A] 1

[Q] # return DNA cleavage for Cc1c(F)c(N2CCNCC2)cc2c1c(=O)c(C(=O)O)cn2C1CC1 , test system: DNA gyrase (Escherichia coli) (UniProt P0AES6+P0AES4)
[A] 0.3

[Q] # return DNA cleavage for CC1CN(c2cc3c(cc2F)c(=O)c(C(=O)O)cn3-c2ccc(F)cc2F)CCN1 (stereo not given) [TEMAFLOXACIN] , test system: DNA gyrase (Escherichia coli) (UniProt P0AES6+P0AES4)
[A] 0.75
